EXPERIMENTAL TARGET: Cyclin-dependent kinase 2/cyclin A (Homo sapiens, UniProt P24941)
METHOD: Inhibition of CDK2/cyclin A (unknown origin) using […] incubated for 40 mins in presence of ATP by Kinase-Glo assay
ATTRIBUTE MEASURED: IC50 (nM)
Give your result in nM as a bare value.

NS(=O)(=O)c1ccc(Nc2nccc(Nc3nc(C4CC4)cs3)n2)cc1	16
CCOC(=O)CNc1ccnc(Nc2ccc(OC)cc2)n1	4090
NS(=O)(=O)c1ccc(Nc2ncc(F)c(Nc3nc(C4CC4)cs3)n2)cc1	11
CCOC(=O)c1sc(Nc2nc(Nc3ccc(S(N)(=O)=O)cc3)ncc2F)nc1C	470
Cc1cnc(Nc2ccnc(Nc3ccc(S(N)(=O)=O)cc3)n2)s1	5
CC(C)c1csc(Nc2ccnc(Nc3ccc(S(N)(=O)=O)cc3)n2)n1	27
NS(=O)(=O)c1ccc(Nc2ncc(F)c(Nc3nc(-c4ccc(F)cc4)cs3)n2)cc1	23
COC(=O)c1sc(Nc2nc(Nc3ccc(S(N)(=O)=O)cc3)ncc2C)nc1C	53

Next compound, please.
Enquiry: Which IC50 value belongs to NS(=O)(=O)c1ccc(Nc2nccc(Nc3nc(-c4ccc(F)cc4)cs3)n2)cc1 ?
Return: 110

Data origin, for the record: ChEMBL document CHEMBL6096697
